System: ZIKV-induced caspase 3/7 activity in SNB-19 cells
Experiment: Caspase 3/7 activity assay, ZIKV-infected SNB-19 cells
Type: cell-based
Details: Homo sapiens; ZIKV-infected SNB-19 cells; read-out: Caspase 3 (IC50, uM) SNB-19
Procedure: Caspase-Glo 3/7 assay kit (catalog number G8092; Promega, Madison, Wis.) was used to detect caspase 3/7 activity. Reagents were reconstituted as described in the protocol from the manufacturer. […] The luminescence intensity of the assay plates was measured using a ViewLux plate reader (PerkinElmer). […] Caspase-Glo 3/7 assay kit (Promega) was used to detect caspase 3/7 activity. […] The luminescence intensity of the assay plates was measured using a ViewLux plate reader (PerkinElmer). […]
# reported IC50; entries follow
// note: answer is a bare numeric in µM

Known IC50 results, listed for orientation:
> print(dat)
                                   compound  test.readout  output.unit  reported.value
1  COc1cccc(-c2ccc(NC(=O)C3=C(C(=O)O)CCC3)c(F)c2)c1          IC50           µM            3.66
2       O=C(Nc1ccc(Br)cc1)c1cc(Br)cc(Br)c1O          IC50           µM            7.74
3  COc1cccc2c1C(=O)c1c(O)c3c(c(O)c1C2=O)C[C@@](O)(C(=O)CO)C[C@@H]3O[C@H]1C[C@H](N)[C@H](O[C@@H]2CCCCO2)[C@H](C)O1          IC50           µM            20.6
4         O=C(O)c1ccccc1Nc1cccc(C(F)(F)F)c1          IC50           µM            10.9

Fill in the blank: the reported IC50 of Cc1ccc(O)c(-n2nc3ccccc3n2)c1 is ____.
8.69

Try this compound next: CN1CC[C@@]2(C)c3cc(OC(=O)Nc4ccccc4)ccc3N(C)[C@@H]12
19.5

Quick one: Cc1cc(O)c2c(c1)C(=O)c1cc(O)cc(O)c1C2=O
4.35

And the next one, CC(=O)Oc1ccccc1C(=O)Nc1ncc([N+](=O)[O-])s1 [Nitazoxanide] ?
2.24

Now try O=C(Oc1ccccc1)c1cccc(C(=O)Oc2ccccc2)c1 [Diphenyl isophthalate] .
4.73

Would you mind doing CCC[S+]([O-])c1ccc2[nH]c(NC(=O)OC)nc2c1 (centres unmarked) [Albendazole oxide] as well?
21.8

Next compound: Cc1nc(-c2ccc(OCC(C)C)c(C#N)c2)sc1C(=O)O
2.91
